Answer each item with its documented ΔΨm.
- Test system: mitochondrial membrane potential
- Assay type: cell-based, mouse
// response body must contain only the number

mitochondrial membrane potential / ΔΨm / CN1CCCN=C1/C=C/c1cccs1 [pyrantel pamoate] : value? −2.829

Query ΔΨm on mitochondrial membrane potential for C[C@@]1(O)CCOC(=O)C1 (racemic) [mevalonic-DL-acid lactone] −0.183

Notebook entry, mitochondrial membrane potential assay: ΔΨm of C1COC(NC(C2CC2)C2CC2)=N1 [rilmenidine] = ? −0.589

I'm curious: which ΔΨm was measured for C[N+](C)(C)CC(=O)O [betaine] tested on mitochondrial membrane potential? 0.345

* * *

- System: reactive oxygen species
- Assay type: cell-based, mouse
- measurement_context: composite Z-score vs mock-treated (DMSO) wells; Conc 20 μM
property: ROS
Answer as a number with no unit attached.

I have this compound here, COC(=O)C[C@H]1C(C)(C)[C@@H](OC(C)=O)[C@@H]2CC3C4CC(=O)O[C@@H](c5ccoc5)[C@]4(C)CCC3[C@@]1(C)C2=O (some centres unmarked) [dihydrofissinolide] , and I need its recorded ROS. 1.029

Quick one: ROS for CC1=CCc2c(cc3oc(C)cc(=O)c3c2O)OC1 ? 0.259

Data request, read-out ROS, for C=C1C2=CC(=O)O[C@@H](c3ccoc3)[C@]2(C)CC[C@@H]1[C@@]1(C)C=CC(=O)C(C)(C)[C@@H]1CC(=O)OC −1.077

I am curious: what ROS value has been reported for CC(C)c1c(O)ccc2c1CC[C@H]1[C@@](C)(CO)CCC[C@]21C [19-hydroxytotarol] ? 1.558

Query (compound): COC(=O)C[C@H]1C2(C)CC34OC5(C)O[C@@]6([C@H](OC(C)=O)C(OC(C)=O)[C@]7(C)C(/C(=C(/O)C(C)C)C(=O)O[C@H]7c7ccoc7)[C@@]6(O5)[C@H](OC(C)=O)[C@@]3(O)C2OC(=O)C(C)C)[C@]14C (some centres unmarked) ; field requested: ROS −0.449

For CC1(C)C(=O)C=C[C@]2(C)[C@H]3CC[C@@]4(C)[C@H](c5ccoc5)OC(=O)[C@H]5O[C@]54[C@]3(C)[C@H](O)C[C@@H]12 , what is its reported ROS? −0.966

Query: ROS; subject: CC(=O)O[C@@H]1CC[C@@]2(C)C(C[C@@H](OC(C)=O)[C@@]3(C)C4=CC(=O)O[C@@H](c5ccoc5)[C@]4(C)CCC23)C1(C)C (stereo partly drawn) [3alpha-acetoxydihydrodeoxygedunin] 2.371

What measured ROS goes with CC1(C)C(=O)C=C[C@]2(C)[C@H]3CC[C@@]4(C)[C@H](c5ccoc5)OC(=O)[C@H]5O[C@]54[C@]3(C)C(=O)C[C@@H]12 ? −0.301

Data request, read-out ROS, for COC(=O)C[C@H]1C2(C)CC34OC5(C)O[C@@]6([C@H](OC)C(OC(=O)C(C)C)[C@]7(C)C(/C(=C(/OC)C(C)C)C(=O)O[C@H]7c7ccoc7)[C@@]6(O5)[C@H](OC)[C@@]3(OC)C2OC(C)=O)[C@]14C (some centres unmarked) 0.777

Which ROS value belongs to COC(=O)C[C@H]1C(C)(C)C(=O)[C@@H]2CC3C4=CC(=O)O[C@@H](c5ccoc5)[C@]4(C)CC[C@@H]3[C@@]1(C)C2=O (some centres unmarked) ? 1.897

Quick check: ROS of COc1ccc(-c2coc3c(OC)c(OC)cc(OC)c3c2=O)cc1 ? 0.359

Report ROS for C[C@@H]([C@H]1OC(C)(C)[C@@H](O)[C@H]1O)[C@@H]1CC[C@]2(C)C3=CC[C@H]4C(C)(C)C(=O)CC[C@]4(C)[C@H]3CC[C@@]12C please. 0.083

// returns reported ROS for input Cc1cc(O)c(C=O)c2c1C(=O)Oc1c(C)c(O)c3c(c1O2)C(O)OC3=O (centres unmarked) 0.560

Any idea what its ROS is? The compound is CC(C)=CCCC1(C)C=Cc2c(O)c3c(c(CC=C(C)C)c2O1)OC12C(=CC4CC1C(C)(C)OC2(C/C=C(/C)C(=O)O)C4O)C3=O (centres unmarked) [dihydrogambogic acid] −2.239

Endpoint output: ROS of Cc1cc(O)c2c(O)c3c(O)cccc3cc2c1 . Value? 0.805

Requested read-out: ROS. Entry: C=CC(C1=CC(=O)C(OC)=CC1=O)c1ccc(O)cc1 (centres unmarked) [4-methoxy-4′-hydroxy-dalbergione] 0.639

Quick one: ROS of CC1(C)CC[C@]2(C(=O)O)CC[C@]3(C)C(=CC[C@@H]4[C@@]5(C)CC[C@H](O)C(C)(C)[C@@H]5CC[C@]43C)[C@@H]2C1 ? −0.144

Report ROS for CC(=O)OC1CC[C@@]2(C)C(CC[C@H]3[C@@H]4CC=C(C(C)=O)[C@@]4(C)C(=O)C[C@@H]32)C1 (some centres unmarked) please. 0.201

Return reported ROS; argument: CC(=O)O[C@H]1CC[C@]2(C)[C@H]3CC[C@@]4(C)[C@H](c5ccoc5)OC(=O)[C@H]5O[C@]54[C@]3(C)[C@H](OC(C)=O)C[C@H]2C1(C)C [3beta-acetoxydeoxodihydrogedunin] 0.055

Would you mind telling me what ROS value was observed for COc1c(O)cc(O)cc1O ? −0.393
